- Tested on: Vero C1008
- stated-conditions: chlorocebus sabaeus, vero c1008, 48 h
Structures can show the parent of a compound that is named as a salt. Peptide text beside a SMILES is read from it. * marks the point of attachment. Cbz = O=C(OCc1ccccc1)*
# label = Yes if CC50 < 10 µM else No

Nc1nc2nn[nH]c2c(=O)[nH]1	No
O=C(c1c2ccccc2cc2ccccc12)N1CCC(N2CCC[C@@H](C(=O)N3CCOCC3)C2)CC1	No
CC(C)C[C@@H](C=O)NC(=O)[C@H](CC(C)C)NC(=O)[C@H](CC(C)C)NC(=O)OCc1ccccc1 [MG-132] (Cbz-Leu-Leu-Leu-aldehyde)	Yes
CC(=O)[C@]1(O)Cc2c(O)c3c(c(O)c2[C@@H](O[C@H]2C[C@H](N)[C@H](O)[C@H](C)O2)C1)C(=O)c1ccccc1C3=O [IDARUBICIN HYDROCHLORIDE]	Yes
COc1cc2c(NC3CCN(C4CCCCC4)CC3)nc(N3CCCN(C(C)C)CC3)nc2cc1OCCCN1CCCCC1	No
CC(=O)[C@]1(O)Cc2c(O)c3c(c(O)c2[C@@H](O[C@H]2C[C@H](N)[C@H](O)[C@H](C)O2)C1)C(=O)c1ccccc1C3=O	Yes

----------
- assay-protocol: in vitro
- stated-conditions: chlorocebus sabaeus, VERO-E6 cells (Vero C1008), uninfected, CC50
Peptide text beside a SMILES is read from it. * marks the point of attachment. Cbz = O=C(OCc1ccccc1)*
measured-parameter: CC50 at 48 h (µM)

CC(C)C[C@@H](C=O)NC(=O)[C@H](CC(C)C)NC(=O)[C@H](CC(C)C)NC(=O)OCc1ccccc1 [MG-132] (Cbz-Leu-Leu-Leu-aldehyde)	2.9
CC(C)(Sc1cc(C(C)(C)C)c(O)c(C(C)(C)C)c1)Sc1cc(C(C)(C)C)c(OC(=O)CCC(=O)O)c(C(C)(C)C)c1	10.2
COc1cc(NCc2ccc3nc(N)nc(N)c3c2C)cc(OC)c1OC [TRIMETREXATE]	1.99
Nc1ncnc2c1c(-c1cnc3[nH]ccc3c1)nn2C1CCCC1	8.95

----------
- assay-protocol: in vitro
- stated-conditions: chlorocebus sabaeus, vero c1008, CC50
Where a name gives a salt, the structure may show the parent alone.
measured-parameter: CC50 at 48 h (µM)

CC(C)n1nc(-c2cc3cc(O)ccc3[nH]2)c2c(N)ncnc21	1.63
COc1ccc(C[C@H]2NC[C@H](O)[C@H]2OC(C)=O)cc1	0.1
O[C@@H](COc1cccc2ncccc12)CN1CCN([C@@H]2c3ccccc3[C@@H]3[C@H](c4ccccc42)C3(F)F)CC1 [ZOSUQUIDAR TRIHYDROCHLORIDE]	9.11
CN(C)c1cccc(-c2c3c(=O)n(-c4ccccc4Cl)[nH]c3cc(=O)n2C)c1	14.8

----------
- Test system: SARS-CoV-2
- assay-protocol: microbe, parasite or virus in culture
- Assay type: functional, organism-based, Chlorocebus sabaeus, Vero C1008
- stated-conditions: vero c1008
Peptide text beside a SMILES is read from it. * marks the point of attachment. Cbz = O=C(OCc1ccccc1)*
measured-parameter: IC50

COc1ccc(-c2cc3c(C)nc(N)nc3n([C@H]3CC[C@H](OCCO)CC3)c2=O)cn1	0.8 µM
CC(C)C[C@@H](C=O)NC(=O)[C@H](CC(C)C)NC(=O)[C@H](CC(C)C)NC(=O)OCc1ccccc1 [MG-132] (Cbz-Leu-Leu-Leu-aldehyde)	0.99 µM
COc1cc2c(NC3CCN(C4CCCCC4)CC3)nc(N3CCCN(C(C)C)CC3)nc2cc1OCCCN1CCCCC1	> 33 µM
CC(C)(C)c1cc(C=C(C#N)C#N)cc(C(C)(C)C)c1O	> 33 µM
CNCc1ccc(-c2cc(-c3nc(-c4ccc(S(=O)(=O)C(C)C)cc4)cnc3N)on2)cc1	3.54 µM
CNC(=O)c1cc(Oc2ccc(NC(=O)Nc3ccc(Cl)c(C(F)(F)F)c3)c(F)c2)ccn1	24.9 µM
